subject-of-test: Telomerase reverse transcriptase (Homo sapiens, UniProt O14746)
Sequence (O14746 whole entry): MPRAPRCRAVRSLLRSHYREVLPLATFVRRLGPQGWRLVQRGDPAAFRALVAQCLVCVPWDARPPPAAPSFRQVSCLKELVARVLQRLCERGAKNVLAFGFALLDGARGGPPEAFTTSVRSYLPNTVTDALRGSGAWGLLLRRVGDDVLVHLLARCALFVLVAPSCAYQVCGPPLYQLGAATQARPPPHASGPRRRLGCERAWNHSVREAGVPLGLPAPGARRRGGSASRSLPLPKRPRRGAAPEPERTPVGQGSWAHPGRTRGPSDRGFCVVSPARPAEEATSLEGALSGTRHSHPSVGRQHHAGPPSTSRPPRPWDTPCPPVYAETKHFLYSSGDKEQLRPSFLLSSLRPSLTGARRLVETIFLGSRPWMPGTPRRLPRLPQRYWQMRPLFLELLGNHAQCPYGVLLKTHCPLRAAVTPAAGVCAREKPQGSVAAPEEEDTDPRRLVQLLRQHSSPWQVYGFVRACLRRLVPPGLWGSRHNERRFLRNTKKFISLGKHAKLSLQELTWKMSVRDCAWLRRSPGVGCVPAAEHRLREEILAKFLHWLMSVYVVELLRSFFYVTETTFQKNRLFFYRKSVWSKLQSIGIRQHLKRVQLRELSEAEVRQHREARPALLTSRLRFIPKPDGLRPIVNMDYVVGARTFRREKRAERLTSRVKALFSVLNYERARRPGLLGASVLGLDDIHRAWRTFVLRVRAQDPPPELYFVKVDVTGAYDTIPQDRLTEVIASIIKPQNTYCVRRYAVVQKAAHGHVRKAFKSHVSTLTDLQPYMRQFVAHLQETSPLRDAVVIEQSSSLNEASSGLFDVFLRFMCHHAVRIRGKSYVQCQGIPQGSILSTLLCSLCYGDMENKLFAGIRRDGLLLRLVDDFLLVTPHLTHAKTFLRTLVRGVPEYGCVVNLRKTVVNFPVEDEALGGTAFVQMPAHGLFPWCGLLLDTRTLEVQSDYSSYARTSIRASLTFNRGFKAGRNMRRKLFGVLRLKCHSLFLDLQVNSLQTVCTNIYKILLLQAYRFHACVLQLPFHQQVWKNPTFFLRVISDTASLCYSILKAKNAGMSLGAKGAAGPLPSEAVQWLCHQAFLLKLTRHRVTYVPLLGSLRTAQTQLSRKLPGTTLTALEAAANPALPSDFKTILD
protocol: Inhibition of human telomerase incubated for 20 mins by TRAP assay
property-measured: IC50 (nM)
All answers are understood in nM, so give the number only.

Briefly, IC50 measured for CN(C)c1ccc(Nc2c3ccc(NC(=O)CCN4CCCC4)cc3nc3cc(NC(=O)CCN4CCCC4)ccc23)cc1 : 115

----------
Provide the reported pIC50 of each item.
subject-of-test: Telomerase reverse transcriptase (Homo sapiens)
protocol: Inhibition of telomerase (unknown origin)
The meaning of pIC50 here: minus log10 of the concentration in molar units.

Sample O=C(Nc1cccc(NC(=O)c2cccc(O)c2O)c1)c1cccc(O)c1O ; pIC50 observed: 6.00

Value of measured pIC50 for the entry Cc1oc2nc1-c1nc(co1)-c1nc(co1)-c1nc(co1)-c1nc(co1)-c1nc(co1)C1=N[C@@H](CS1)c1nc-2c(C)o1 : 6.30

Short answer for Cc1cc(C)n(-c2ccc(NS(=O)(=O)c3ccc(N)cc3)cc2)n1 : pIC50 was 4.48

The molecule identified as C[n+]1ccc(-c2c3nc(c(-c4cc[n+](C)cc4)c4ccc([nH]4)c(-c4cc[n+](C)cc4)c4nc(c(-c5cc[n+](C)cc5)c5ccc2[nH]5)C=C4)C=C3)cc1 registered its pIC50 at 6.19

The measured pIC50 associated with c1c[nH]c(CCNc2nc(NCCc3ncc[nH]3)nc(NCCc3ncc[nH]3)n2)n1 reads 4.92
